- target.entity: CXCR4 (Homo sapiens, UniProt P61073)
- Sequence (P61073 whole entry): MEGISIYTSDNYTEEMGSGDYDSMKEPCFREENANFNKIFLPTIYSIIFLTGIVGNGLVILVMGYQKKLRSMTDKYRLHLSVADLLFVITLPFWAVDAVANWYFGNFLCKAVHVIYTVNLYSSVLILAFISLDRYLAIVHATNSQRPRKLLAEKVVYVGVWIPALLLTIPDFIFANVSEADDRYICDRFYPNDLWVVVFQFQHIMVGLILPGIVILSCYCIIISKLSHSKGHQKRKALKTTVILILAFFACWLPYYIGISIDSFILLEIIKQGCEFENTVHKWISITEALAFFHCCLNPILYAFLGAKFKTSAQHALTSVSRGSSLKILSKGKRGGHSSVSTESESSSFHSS
- assay.remarks: [125I]-CXCL12 radio-ligand displacement on membranes of HEK293 cells transfected with CXCR4
- Assay type: binding
- reported.conditions: 75 pM [125I]-CXCL12
value.type: [125I] SDF-1 displacement on CXCR4-Hek pKi +/SEM (n = 3)

[125I] SDF-1 displacement on CXCR4-Hek pKi +/SEM (n = 3) reported for this molecule 281A5: anti-CXCR4 Nanobody, SEQ ID NO: 5 (protein, Nanobody Sequence) VHH: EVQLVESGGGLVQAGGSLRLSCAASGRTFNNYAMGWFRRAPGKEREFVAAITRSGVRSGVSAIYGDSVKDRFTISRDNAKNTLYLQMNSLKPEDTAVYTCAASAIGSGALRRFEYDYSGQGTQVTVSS : 8.12 +/− 0.08

[125I] SDF-1 displacement on CXCR4-Hek pKi +/SEM (n = 3) reported for this molecule 281E10: anti-CXCR4 Nanobody, SEQ ID NO: 6 (protein, Nanobody Sequence) VHH: EVQLVESGGGLVQAGGSLRLSCKASGGTFNNYAMGWFRRAPGKEREFVAAITRSGVRSGVSAIYGDSVKDRFTISRDNVKNTLYLQMNTLKPEDTAVYTCAASAIGSGALRRFEYDYSGQGTQVTVSS : 9.21 +/− 0.12

[125I] SDF-1 displacement on CXCR4-Hek pKi +/SEM (n = 3) reported for this molecule 281D4: anti-CXCR4 Nanobody, SEQ ID NO: 7 (protein, Nanobody Sequence) VHH: EVQLVESGGGLVQAGGSLRLSCAASGGTFNNYAMGWFRRAPGKEREFVAAISRSGVRTGVSALYGDSVKDRFTISRDNAKNTLYLQMNKMKPEDTAVYTCAASAIGSGALRRFEYDSSGQGTQVTVSS : 8.27 +/− 0.05
